This collection of values is drawn from paper PMC7980035.

- ASSAY TARGET: SARS 3C-like proteinase (Severe acute respiratory syndrome coronavirus)
- EXPERIMENTAL CONDITIONS: pH 7.3
Form field: kcat/Km (one value per entry).

SUBSTANCE | ASSAY TARGET | kcat/Km
NVATLQ/AENVT [Peptide S09] | SARS 3C-like proteinase (Severe acute respiratory syndrome coronavirus) | 0.976 ± 0.014 ^b mM^-1 min^-1
KVATVQ/SKMSD [Peptide S03] | SARS 3C-like proteinase (Severe acute respiratory syndrome coronavirus) | 0.353 ± 0.013 ^b mM^-1 min^-1
NRATLQ/AIASE [Peptide S04] | SARS 3C-like proteinase (Severe acute respiratory syndrome coronavirus) | 0.556 ± 0.126 ^b mM^-1 min^-1
SAVKLQ/NNELS [Peptide S05] | SARS 3C-like proteinase (Severe acute respiratory syndrome coronavirus) | 0.202 ± 0.003 ^b mM^-1 min^-1
REPLMQ/SADAS [Peptide S07] | SARS 3C-like proteinase (Severe acute respiratory syndrome coronavirus) | 0.0176 ± 0.0022 ^b mM^-1 min^-1

---

- Assay type: physicochemical
- EXPERIMENTAL CONDITIONS: pH 7.3
# strict inequality: Calculated secondary structure content: Sheet < 20 yields fulfilled, everything else yields not fulfilled

SUBSTANCE | CLASSIFICATION
FYPKLQ/ASQAW [Peptide S11] | not fulfilled
ATVRLQ/AGNAT [Peptide S06] | not fulfilled
TFTRLQ/SLENV [Peptide S10] | not fulfilled
KVATVQ/SKMSD [Peptide S03] | not fulfilled
SGVTFQ/GKFKK [Peptide S02] | not fulfilled
REPLMQ/SADAS [Peptide S07] | fulfilled
PHTVLQ/AVGAC [Peptide S08] | not fulfilled
NRATLQ/AIASE [Peptide S04] | not fulfilled
SAVKLQ/NNELS [Peptide S05] | fulfilled

---

- ASSAY TARGET: SARS 3C-like proteinase (Severe acute respiratory syndrome coronavirus, UniProt P0C6X7)
- EXPERIMENTAL CONDITIONS: pH 7.3
Form field: kcat/Km (one value per entry).
MEASURED QUANTITY: kcat/Km

SUBSTANCE | ENDPOINT RESULT
PHTVLQ/AVGAC [Peptide S08] | 0.865 ± 0.028 ^a mM^-1 min^-1
TFTRLQ/SLENV [Peptide S10] | 2.96 ± 0.11 ^a mM^-1 min^-1
FYPKLQ/ASQAW [Peptide S11] | 2.86 ± 0.21 ^a mM^-1 min^-1
ATVRLQ/AGNAT [Peptide S06] | 2.29 ± 0.09 ^a mM^-1 min^-1
SGVTFQ/GKFKK [Peptide S02] | 4.38 ± 0.26 ^a mM^-1 min^-1

---

- Assay type: physicochemical
- EXPERIMENTAL CONDITIONS: pH 7.3
Assign 1.0 to entries whose Calculated secondary structure content: Other meets or exceeds 40; assign 0.0 to the rest.

SUBSTANCE | CLASSIFICATION
KVATVQ/SKMSD [Peptide S03] | 1.0
ATVRLQ/AGNAT [Peptide S06] | 1.0
PHTVLQ/AVGAC [Peptide S08] | 1.0
SAVKLQ/NNELS [Peptide S05] | 1.0
SGVTFQ/GKFKK [Peptide S02] | 0.0
FYPKLQ/ASQAW [Peptide S11] | 0.0
NRATLQ/AIASE [Peptide S04] | 1.0

---

- Format: physicochemical
- EXPERIMENTAL CONDITIONS: pH 7.3
MEASURED QUANTITY: Calculated secondary structure content: Helix

SUBSTANCE | ENDPOINT RESULT
ATVRLQ/AGNAT [Peptide S06] | 2
TFTRLQ/SLENV [Peptide S10] | 4
NRATLQ/AIASE [Peptide S04] | 2
SAVKLQ/NNELS [Peptide S05] | 10
SGVTFQ/GKFKK [Peptide S02] | 3
REPLMQ/SADAS [Peptide S07] | 1
FYPKLQ/ASQAW [Peptide S11] | 2
PHTVLQ/AVGAC [Peptide S08] | 5
KVATVQ/SKMSD [Peptide S03] | 2

---

- ASSAY TARGET: SARS 3C-like proteinase (Severe acute respiratory syndrome coronavirus, UniProt P0C6X7)
- EXPERIMENTAL CONDITIONS: pH 7.3
Assign Condition met to entries whose Km meets or exceeds 1000 µM; assign Condition not met to the rest.

SUBSTANCE | CLASSIFICATION
PHTVLQ/AVGAC [Peptide S08] | Condition met
TFTRLQ/SLENV [Peptide S10] | Condition not met
FYPKLQ/ASQAW [Peptide S11] | Condition not met
SGVTFQ/GKFKK [Peptide S02] | Condition not met
ATVRLQ/AGNAT [Peptide S06] | Condition met

---

- Assay type: physicochemical
- EXPERIMENTAL CONDITIONS: pH 7.3
Assign y to entries whose Calculated secondary structure content: Tum meets or exceeds 30; assign n to the rest.

SUBSTANCE | CLASSIFICATION
SAVKLQ/NNELS [Peptide S05] | n
SGVTFQ/GKFKK [Peptide S02] | n
FYPKLQ/ASQAW [Peptide S11] | y
REPLMQ/SADAS [Peptide S07] | y
PHTVLQ/AVGAC [Peptide S08] | n
TFTRLQ/SLENV [Peptide S10] | y
KVATVQ/SKMSD [Peptide S03] | n

---

- ASSAY TARGET: SARS 3C-like proteinase (Severe acute respiratory syndrome coronavirus)
- EXPERIMENTAL CONDITIONS: pH 7.3
Form field: kcat (one value per entry).

SUBSTANCE | kcat (s⁻¹)
TFTRLQ/SLENV [Peptide S10] | 0.0141
FYPKLQ/ASQAW [Peptide S11] | 0.0262
PHTVLQ/AVGAC [Peptide S08] | 0.028
SGVTFQ/GKFKK [Peptide S02] | 0.0425
ATVRLQ/AGNAT [Peptide S06] | 0.0548
